Just for reference, patent US20240116997A1 is where these values come from.

# measurementTarget: T1, IL-18 receptor (IL-18Rαβ) on cells (UniProt Q13478 19-541; O95256 20-599, limits assumed)
# T1 sequence (looked up) 1: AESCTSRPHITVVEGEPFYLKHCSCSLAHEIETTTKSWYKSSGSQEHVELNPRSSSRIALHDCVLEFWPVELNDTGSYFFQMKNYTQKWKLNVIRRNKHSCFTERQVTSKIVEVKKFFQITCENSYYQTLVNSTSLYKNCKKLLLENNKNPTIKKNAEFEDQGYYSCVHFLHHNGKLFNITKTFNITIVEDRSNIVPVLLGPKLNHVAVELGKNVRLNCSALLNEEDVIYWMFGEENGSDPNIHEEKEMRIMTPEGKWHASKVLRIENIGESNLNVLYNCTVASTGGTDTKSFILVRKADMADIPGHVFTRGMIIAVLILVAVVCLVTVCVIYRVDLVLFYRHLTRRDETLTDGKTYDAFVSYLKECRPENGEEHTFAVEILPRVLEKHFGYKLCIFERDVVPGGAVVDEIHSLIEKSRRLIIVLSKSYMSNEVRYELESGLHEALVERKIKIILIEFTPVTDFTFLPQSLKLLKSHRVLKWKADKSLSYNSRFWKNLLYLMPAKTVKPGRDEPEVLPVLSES
# T1 sequence (looked up) 2: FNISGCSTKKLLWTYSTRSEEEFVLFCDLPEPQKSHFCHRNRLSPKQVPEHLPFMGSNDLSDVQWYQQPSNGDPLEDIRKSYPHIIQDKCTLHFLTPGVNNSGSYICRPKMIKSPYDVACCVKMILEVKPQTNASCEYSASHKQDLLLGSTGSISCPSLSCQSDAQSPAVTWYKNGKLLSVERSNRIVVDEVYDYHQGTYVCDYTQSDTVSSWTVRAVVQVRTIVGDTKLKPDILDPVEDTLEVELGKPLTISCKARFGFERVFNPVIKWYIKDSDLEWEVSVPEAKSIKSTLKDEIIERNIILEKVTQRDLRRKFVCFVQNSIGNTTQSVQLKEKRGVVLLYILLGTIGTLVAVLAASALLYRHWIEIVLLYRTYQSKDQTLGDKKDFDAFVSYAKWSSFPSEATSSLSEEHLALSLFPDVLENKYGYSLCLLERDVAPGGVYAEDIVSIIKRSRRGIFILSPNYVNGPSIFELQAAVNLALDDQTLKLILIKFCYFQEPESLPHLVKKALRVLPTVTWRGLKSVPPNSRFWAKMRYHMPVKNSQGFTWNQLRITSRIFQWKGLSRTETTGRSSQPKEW
# testDescription: cell-based or functional assay
valueKind: HEK-blue EC50 (nM)
Write the number in nM without appending the unit.

Form: binder = C189 (C086-LinkerX-IL-18Rα D3 without glycosylation sites-His6; SEQ ID NO: 75) (ligand) YFGKLKSKLSIIRNLNDQVLFIDQGNRPLFEDMTDSDARDNAPRTIFIISMYADSQPRGMAVAISVKCEKISTLSAENKIISFKEMNPPDNIKDTKSDIIFFQRSVPGHDNKMQFESSSYEGYFLAAEKERDLFKLILKKEDELGDRSIMFTVQNESGGPGPAGMKGLPGSNIVPVLLGPKLNHVAVELGKNVRLDCSALLNEEDVIYWMFGEEDGSDPNIHEEKEMRIMTPEGKWHASKVLRIENIGESNLNVLYDCTVASTGGTDTKSFILVRKADHHHHHH ; HEK-blue EC50 = 0.43

Form: binder = C185 (Propeptide-PLG-C086; SEQ ID NO: 70) (ligand) MAAEPVEDNCINFVAMKFIDNTLYFIAEDDENLESDPLGYFGKLKSKLSIIRNLNDQVLFIDQGNRPLFEDMTDSDARDNAPRTIFIISMYADSQPRGMAVAISVKCEKISTLSAENKIISFKEMNPPDNIKDTKSDIIFFQRSVPGHDNKMQFESSSYEGYFLAAEKERDLFKLILKKEDELGDRSIMFTVQNED ; HEK-blue EC50 = 2560

Form: binder = C190 + MMP9 (ligand) MAAEPVEDNCINFVAMKFIDNTLYFIAEDDENLESDYFGKLKSKLSIIRNLNDQVLFIDQGNRPLFEDMTDSDARDNAPRTIFIISMYADSQPRGMAVAISVKCEKISTLSAENKIISFKEMNPPDNIKDTKSDIIFFQRSVPGHDNKMQFESSSYEGYFLAAEKERDLFKLILKKEDELGDRSIMFTVQNED ; HEK-blue EC50 = 198

Form: binder = C137 (C086-GGGGSGGGGSGGGG-IL-18Rα D3-His6, non-cleavable control; SEQ ID NO: 78) (ligand) YFGKLKSKLSIIRNLNDQVLFIDQGNRPLFEDMTDSDARDNAPRTIFIISMYADSQPRGMAVAISVKCEKISTLSAENKIISFKEMNPPDNIKDTKSDIIFFQRSVPGHDNKMQFESSSYEGYFLAAEKERDLFKLILKKEDELGDRSIMFTVQNEGGGGSGGGGSGGGGSNIVPVLLGPKLNHVAVELGKNVRLNCSALLNEEDVIYWMFGEENGSDPNIHEEKEMRIMTPEGKWHASKVLRIENIGESNLNVLYNCTVASTGGTDTKSFILVRKADHHHHHH ; HEK-blue EC50 = 2.08

Now turn to the next binder.
Form: binder = C136 (C086-GGSGG-IL-18Rα D3-His6, non-cleavable control; SEQ ID NO: 77) (ligand) YFGKLKSKLSIIRNLNDQVLFIDQGNRPLFEDMTDSDARDNAPRTIFIISMYADSQPRGMAVAISVKCEKISTLSAENKIISFKEMNPPDNIKDTKSDIIFFQRSVPGHDNKMQFESSSYEGYFLAAEKERDLFKLILKKEDELGDRSIMFTVQNEGGSGGSNIVPVLLGPKLNHVAVELGKNVRLNCSALLNEEDVIYWMFGEENGSDPNIHEEKEMRIMTPEGKWHASKVLRIENIGESNLNVLYNCTVASTGGTDTKSFILVRKADHHHHHH ; HEK-blue EC50 = 0.884
